# procedure_text: OSM: HEK293 cytotoxicity assay. IC50 values determined from 21 point dose response curves. Avery Group Griffith.
# Format: toxicity, cell-based
# test_conditions: human, HEK293 cells
Kindly supply the reported IC50 values for the records listed here.
Your answer is read as µM, so omit the unit and give the number.

Q: May I ask what IC50 has been recorded for CCc1nc(N)nc(N)c1-c1ccc(Cl)cc1 [PYRIMETHAMINE] ?
Ans: 13.9

Q: Record: CC[C@H](C)[C@H](NC(=O)[C@H]([C@@H](C)CC)N(C)C(C)=O)C(=O)N[C@H](C(=O)N[C@@H](CC(C)C)C(=O)[C@@]1(C)CO1)[C@@H](C)O [EPOXOMYCIN]
Ans: 0.0336
